# protocol: Solubility
# Format: physicochemical
# assay_context: one gram, water at 100° C.; read-out: water to dissolve one gram completely (converted)
property_label: solubility (mg/mL)

CCc1occc(=O)c1O [ethyl maltol, 3-hydroxy-2-ethyl-4-pyrone] ... 167
